The values you see were collected from PubChem BioAssay AID2252.

Each item that follows carries a reported EC50.
- System: THP-1 viability, CellTiter-Glo luminescence, 72 h
- measurement.notes: PubChem AID 2252

Record excerpt, results attached:
compound=Fc1ccc(Nc2c3c(nc4ccccc24)CCC3)cc1 measurement="6.33 µM"
compound="CCN(CC(O)COc1ccc(OCC(O)CN(CC)C2CCCCC2)cc1)C1CCCCC1 (stereo not given)" measurement="37.4 µM"
compound=Cc1ccccc1C(=O)NNC(=S)NC(=O)COc1ccccc1 measurement="48.1 µM"
compound=Nn1cnnc1N/N=C\c1ccc(-c2ccccc2[N+](=O)[O-])o1 measurement="41.3 µM"

Tested system THP-1 viability, CellTiter-Glo luminescence, 72 h; EC50 recorded for `COc1ccccc1Nc1nc(Cl)c(C=O)s1` was 21.1 µM

###

- Tested on: THP-1 viability, CellTiter-Glo luminescence, 72 h
- measurement.notes: PubChem AID 2252
pEC50: −log10 of the molar value.
measure.name: pEC50

molecule=COc1cc(CNC2CCCC2)cc(Cl)c1OCc1ccccc1Cl experimental_system="THP-1 viability, CellTiter-Glo luminescence, 72 h" measure_name=pEC50 measurement=4.84
molecule=Cc1cc(C)n(-c2nc(NCCN(C)C)c3c4c(sc3n2)CCCC4)n1 experimental_system="THP-1 viability, CellTiter-Glo luminescence, 72 h" measure_name=pEC50 measurement=5.36
molecule=CNCc1c(OCc2ccccc2F)ccc2ccccc12 experimental_system="THP-1 viability, CellTiter-Glo luminescence, 72 h" measure_name=pEC50 measurement=4.82
molecule="c1cc2c(cc1C1CCCCC1)c1c3n2CCCNC3CCC1 (stereo not given)" experimental_system="THP-1 viability, CellTiter-Glo luminescence, 72 h" measure_name=pEC50 measurement=5.29

Given item `Cn1c(=O)c2c(nc(Br)n2CCSc2nc3ccccc3o2)n(C)c1=O` , the value recorded as its pEC50 is > 7.00

###

Each item that follows carries a reported EC50.
- System: THP-1 viability, CellTiter-Glo luminescence, 72 h
- measurement.notes: PubChem AID 2252

Record excerpt, results attached:
item_smiles=NC1=NC[C@H](Cc2ccc(O)cc2)N1CCc1cccc2ccccc12 measure_name=EC50 measurement="32.7 µM"
item_smiles=CCCCCCCCCCCCCCCC[N+](C)(C)CC measure_name=EC50 measurement="0.48 µM"
item_smiles=CCOC(=O)C1=C(O)c2ccccc2C(=O)/C1=C\c1ccc(C)cc1 measure_name=EC50 measurement="23.3 µM"
item_smiles=Cc1ccc(-c2cc(-c3ccc(C)cc3)[n+](-c3ccccc3)c(-c3ccc(C)cc3)c2)cc1 measure_name=EC50 measurement="0.49 µM"

// next entry
Given item `Cc1ccc2nsnc2c1S(=O)(=O)NCc1ccc2c(c1)OCO2` , the value recorded as its EC50 is < 0.1 µM

###

- System: THP-1 viability, CellTiter-Glo luminescence, 72 h
- measurement.notes: PubChem AID 2252
measure.name: EC50

item_smiles=CCCCCCCCCCCCCCCC[N+](C)(C)CCN(Cc1ccc(OC)cc1)c1ncccn1 measurement="0.36 µM"
item_smiles=NC(N)=N/N=C/c1ccc(OCc2ccc(Cl)cc2)cc1 measurement="5.57 µM"
item_smiles=Cc1ccc(-c2csc(NC(=O)C[n+]3cc(-c4ccc(C)cc4)n4c3CCC4)n2)cc1 measurement="8.33 µM"
item_smiles=C#CCOCCOCCOCCNc1nc(N2CCN(C(=O)CCCCCCCCCCNC(=O)Cn3cc(C[C@@H](C)O)nn3)CC2)nc(N2CCN(C(=O)CCCCCCCCCCNC(=O)[C@@H]([C@H](C)CC)n3cc(CCCCCN)nn3)CC2)n1 measurement="9.97 µM"
item_smiles=O=C(CNC(=O)c1ccccc1)N/N=C/c1ccc([N+](=O)[O-])s1 measurement="16.9 µM"

Tested system THP-1 viability, CellTiter-Glo luminescence, 72 h; EC50 recorded for `CN(C)CCNC(=O)c1ccc(COc2ccc(Cl)cc2Cl)cc1` was 13.8 µM

Tested system THP-1 viability, CellTiter-Glo luminescence, 72 h; EC50 recorded for `Cc1ccc(Nc2cc(C)nn2-c2nc(C)cc(=O)[nH]2)cc1` was 0.65 µM

###

- System: THP-1 viability, CellTiter-Glo luminescence, 72 h
- measurement.notes: PubChem AID 2252
Each item that follows carries a reported pEC50.
Remember the convention: pEC50 equals -log10 of concentration in molar.

Record excerpt, results attached:
item_smiles=CCn1ncc(/C=N\NC(=O)c2csc3ccccc23)c1C measure_name=pEC50 measurement=4.72
item_smiles=CC1CCN(CCOCCOc2ccc(Br)cc2Cl)CC1 measure_name=pEC50 measurement=4.48
item_smiles=O=C(N/N=C/c1cc(O)ccc1Br)c1cccnc1 measure_name=pEC50 measurement=5.54

// next entry
Given item `Cc1nonc1C(=O)N/N=C/c1ccc([N+](=O)[O-])o1` , the value recorded as its pEC50 is 4.39

###

Each item that follows carries a reported pEC50.
- Test system: THP-1 viability, CellTiter-Glo luminescence, 72 h
- measurement.notes: PubChem AID 2252
Remember the convention: pEC50 equals -log10 of concentration in molar.

Record excerpt, results attached:
item_smiles=NC(N)=N/N=C/c1ccc(OCc2ccccc2Cl)cc1 experimental_system="THP-1 viability, CellTiter-Glo luminescence, 72 h" measure_name=pEC50 measurement=5.50
item_smiles=Cc1cc(OCCCCCNCCO)cc(C)c1Cl experimental_system="THP-1 viability, CellTiter-Glo luminescence, 72 h" measure_name=pEC50 measurement=4.67

// next entry
Given item `CC1(C)CC(N2CCN(c3ccccc3)CC2)=CC(=[N+]2CCCC2)C1` , the value recorded as its pEC50 is 5.05
